# experimental-protocol: Metabolic stability in cynomolgus monkey plasma assessed as compound remaining at 185 to 259 MBq, iv measured at 90 mins by HPLC analysis
# Format: ADME, organism-based, Macaca fascicularis
# test-conditions: read-out: Stability
endpoint-label: remaining at 1.5 h (%)
Write it as a number; the unit % goes unstated.

Cn1cc(-c2ccncc2)c(-c2ccc(OCc3cc(OCC[18F])c4ccccc4n3)cc2)n1	57

API: the following record is the query input.
Input line: Reported remaining at 1.5 h for Cn1cc(-c2ccncc2)c(-c2ccc(OCc3nc4ccccc4cc3OCC[18F])cc2)n1 : what is it?
Output line: 45

----------
The reader will find reported Drug uptake values listed item by item below.
# Tested on: Muscle tissue
# experimental-protocol: Biodistribution in Sprague-Dawley rat muscle at 1.48 to 2.22 MBq, iv measured at 60 mins by gamma counting analysis
# Format: ADME, organism-based
# test-conditions: in vivo, 1 h
Number only, in % ID/g; omit the unit.

Take a look at these entries with their results.
Cn1cc(-c2ccncc2)c(-c2ccc(OCc3cc([18F])c4ccccc4n3)cc2)n1	0.092
Cn1cc(-c2ccncc2)c(-c2ccc(OCc3cc(OCCOCCOCC[18F])c4ccccc4n3)cc2)n1	0.379
Cn1cc(-c2ccncc2)c(-c2ccc(OCc3cc(COCC[18F])c4ccccc4n3)cc2)n1	0.228
Cn1cc(-c2ccncc2)c(-c2ccc(OCc3cc(CCC[18F])c4ccccc4n3)cc2)n1	0.103
Cn1cc(-c2ccncc2)c(-c2ccc(OCc3cc(C[18F])c4ccccc4n3)cc2)n1	0.107
Cn1cc(-c2ccncc2)c(-c2ccc(OCc3cc(OCC[18F])c4ccccc4n3)cc2)n1	0.132

Input line: // returns reported Drug uptake for input Cn1cc(-c2ccncc2)c(-c2ccc(OCc3nc4ccccc4cc3OCC[18F])cc2)n1
Output line: 0.134

----------
# Tested on: Kidney
# experimental-protocol: Biodistribution in Sprague-Dawley rat kidney at 1.48 to 2.22 MBq, iv measured at 5 mins by gamma counting analysis
# Assay type: ADME, organism-based
# test-conditions: in vivo
// values below are reported Drug uptake
Kindly provide the numeric value in % ID/g only, without the unit symbol.

A selection of reference data follows.
Cn1cc(-c2ccncc2)c(-c2ccc(OCc3cc(OCC[18F])c4ccccc4n3)cc2)n1	2.2
Cn1cc(-c2ccncc2)c(-c2ccc(OCc3cc(C[18F])c4ccccc4n3)cc2)n1	1.799
Cn1cc(-c2ccncc2)c(-c2ccc(OCc3cc([18F])c4ccccc4n3)cc2)n1	1.887
Cn1cc(-c2ccncc2)c(-c2ccc(OCc3cc(COCC[18F])c4ccccc4n3)cc2)n1	0.981
Cn1cc(-c2ccncc2)c(-c2ccc(OCc3cc(CCC[18F])c4ccccc4n3)cc2)n1	2.471
Cn1cc(-c2ccncc2)c(-c2ccc(OCc3cc(OCCOCCOCC[18F])c4ccccc4n3)cc2)n1	5.969

Shift focus to the following entry.
Input line: For Cn1cc(-c2ccncc2)c(-c2ccc(OCc3nc4ccccc4cc3OCC[18F])cc2)n1 , what is its reported Drug uptake?
Output line: 1.789

----------
# Test system: Muscle tissue
# experimental-protocol: Biodistribution in Sprague-Dawley rat muscle at 1.48 to 2.22 MBq, iv measured at 5 mins by gamma counting analysis
# Type: ADME, organism-based
# test-conditions: in vivo
We begin with a simple list: items and their reported Drug uptake.
Form entry: value (% ID/g) — number only.

Recorded Drug uptake, per entry:
Cn1cc(-c2ccncc2)c(-c2ccc(OCc3cc([18F])c4ccccc4n3)cc2)n1	0.339
Cn1cc(-c2ccncc2)c(-c2ccc(OCc3cc(OCCOCCOCC[18F])c4ccccc4n3)cc2)n1	0.419
Cn1cc(-c2ccncc2)c(-c2ccc(OCc3cc(COCC[18F])c4ccccc4n3)cc2)n1	0.155
Cn1cc(-c2ccncc2)c(-c2ccc(OCc3cc(CCC[18F])c4ccccc4n3)cc2)n1	0.223
Cn1cc(-c2ccncc2)c(-c2ccc(OCc3cc(OCC[18F])c4ccccc4n3)cc2)n1	0.247

Input line: Need Drug uptake of Cn1cc(-c2ccncc2)c(-c2ccc(OCc3nc4ccccc4cc3OCC[18F])cc2)n1 , thanks.
Output line: 0.166

Input line: Give the measured Drug uptake of Cn1cc(-c2ccncc2)c(-c2ccc(OCc3cc(C[18F])c4ccccc4n3)cc2)n1 .
Output line: 0.227
